Test: NCI Yeast Anticancer Drug Screen. Data for the rad50 strain (AID 155);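 also: 0% = growth of vehicle-only cultures of the same strain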
Conditions: S. cerevisiae rad50 strain growth inhibition; at 5.0 µM (retest, dose inferred, filed as 0.5); hits give high values
Experimental: Growth inhibition of yeast strains with defined genetic alterations is measured as a screen for potential anti-cancer activity. Selected strains with alterations in DNA damage repair or cell cycle control were exposed to compounds and growth inhibition was measured relative to vehicle treated controls. The strain used in this assay is rad50
The panel holds about 79,000 compounds, 15% with a hit somewhere; the sample as a whole holds those more often. Active and inactive are the calls of the source. Rule as the data show it: active = growth inhibition above about 70%; inactive = the rest.
ASSAY_ENDPOINT: growth inhibition

Task: Recorded growth inhibition of CC(Cc1ccccc1)NN1CCOC(c2ccccc2)C1C (stereo not drawn) , please.
Output: 2% (inactive)

Task: If you can, please state the reported growth inhibition value of "Cc1c(C(=O)O)nc(C(Br)(Br)Br)[nH]c1=O" .
Output: 6% (inactive)

Task: Using the record for O=Cc1ccc2c(c1)CC1(C2)Cc2ccc3c(c2C1)CCC3 (stereo not drawn) , report its growth inhibition.
Output: -1% (inactive)
